Molecule: CCC(C(O)c1ccc(Cl)cc1)n1ncn(-c2ccc(N3CCN(C(=O)NC)CC3)cc2)c1=O (centres undefined)
melting point / °C: 221
//
Molecule: CC(C)c1nc(C(C)C)c(CCCC(=O)O)c(-c2ccc(F)cc2)c1CO
melting point / °C: 160

* * *

In this section we review reported melting point values for a set of molecules.
Value type: melting point

Molecule: CCC(=CC(CNC(=O)c1c(C)noc1C)=NO)C(C)[N+](=O)[O-] (stereo not drawn)
Value type: melting point
Result: 100 to 103 °C
--
Molecule: Cc1ncnc2c(NC(=O)c3c(Cl)cccc3Cl)cccc12
Value type: melting point
Result: 223 to 225 °C
--
Molecule: O=C(O)Cn1c(=O)c(=O)[nH]c2cc([N+](=O)[O-])c(-n3ccc(CN4CCC(c5ccccc5)CC4)c3)cc21
Value type: melting point
Result: > 210 °C
--
Molecule: N#CC(C#N)=C1N(CCCN2CCCCC2)CCN1CCN1CCCCC1
Value type: melting point
Result: 88 to 89 °C
--
Molecule: CCOC(=O)C1=C(c2ccccc2)N(c2ccccc2)C(=O)C1C(=O)c1ccccc1 (stereo not drawn)
Value type: melting point
Result: 137 to 139 °C
--
Molecule: CC(=S)NC[C@H]1CN(c2ccc3c(c2)C[C@@H](C)N3C(=O)CO)C(=O)O1
Value type: melting point
Result: 115 to 117 °C
--
Molecule: C=CCN(C)C(=O)Cn1c(-c2ccc(Cl)cc2)nc2cccnc21
Value type: melting point
Result: 124 to 127 °C
--
Molecule: ClC(c1ccccc1)c1cccnn1 (stereo not drawn)
Value type: melting point
Result: 110 to 112 °C
--
Molecule: CC(=NOCC(N)=O)c1ccc(Cl)c(Cl)c1
Value type: melting point
Result: 111 to 112 °C
--
Molecule: COC(=S)c1cc(C)nc(Cl)n1
Value type: melting point
Result: 90 to 92 °C
--
Molecule: O=C1CC(c2cccc([N+](=O)[O-])c2)=Nc2ccc(C#Cc3ccccc3)cc2N1
Value type: melting point
Result: 228 to 229 °C
--
Molecule: Oc1cccc(C(F)(F)F)n1
Value type: melting point
Result: 117 to 118 °C
--
Molecule: CCCCCOc1cc(C(=O)O)cc(N)c1-c1ccccc1
Value type: melting point
Result: 134 to 135 °C
--
Molecule: O=C1c2cc3nnn(C4CCC4)c(=O)c3cc2OC2CCCN12 (stereo not drawn)
Value type: melting point
Result: 216 to 218 °C
--
Molecule: CC(=O)OC1CCC2C3C(Sc4ccc(O)cc4)C(=O)c4cc(O)ccc4C3CCC12C (stereo not drawn)
Value type: melting point
Result: 150 to 155 °C
--
Molecule: Cc1cn2c(=O)c3cc(S(=O)(=O)Cl)ccc3nc2s1
Value type: melting point
Result: 206 to 209 °C
--
Molecule: CCN(CC)C(=O)Cc1c(-c2ccc(O)cc2)nn2c(C)cc(C)nc12
Value type: melting point
Result: 242 to 247 °C
--
Molecule: CCCCCCCCCCCCCCCCOCC(CO)OCOC(C)=O (stereo not drawn)
Value type: melting point
Result: 44 °C
--
Molecule: CCCCCS(=O)(=O)NC(=O)/C=C/c1cc(OC2CCOCC2)nn1Cc1ccc(Cl)cc1Cl
Value type: melting point
Result: 154 to 157 °C
--
Molecule: CCOC(=O)c1sc(C)nc1OC(=S)N(C)C
Value type: melting point
Result: 87 to 90 °C
--
Molecule: CCOC(=O)c1cc(O)n(-c2ccccc2)n1
Value type: melting point
Result: 183 to 184 °C
--
Molecule: CCCc1nc2ccnn2c(O)c1Cc1ccc(-c2ccccc2C(N)=O)cc1
Value type: melting point
Result: 264 °C
--
Molecule: CCCNC(=O)CP(=O)(O)O
Value type: melting point
Result: 155 to 160 °C
--
Molecule: Cc1[nH]ccc(=O)c1OCc1ccccc1
Value type: melting point
Result: 162 to 164 °C
--
Molecule: NS(=O)(=O)c1cc(C(=O)O)cc(SCc2ccccc2)c1Sc1ccccc1
Value type: melting point
Result: 208 to 209 °C
--
Molecule: CCN1C(=O)SC(Cc2ccc(N)cc2)C1=O (stereo not drawn)
Value type: melting point
Result: 103 to 104 °C
--
Molecule: NC(=O)CNC(=O)c1cncc(-c2cccc3cc(Cc4cc(F)cc(Cl)c4)sc23)c1
Value type: melting point
Result: 176 to 177 °C
--
Molecule: CCCCCCNC(=O)Oc1ccc2c(c1)CCCN2C
Value type: melting point
Result: 50 °C
--
Molecule: C#CCN1CCN(C2Cc3ccc(C)cc3Sc3ccc(F)cc32)CC1 (stereo not drawn)
Value type: melting point
Result: 168 to 174 °C
--
Molecule: COc1cccc2c(N3CCN(C[C@H]4COc5ccc6nc(C)ccc6c5O4)CC3)coc12
Value type: melting point
Result: 56 °C
--
Molecule: CCn1c(C)nc2cc(C(F)(F)F)cc(N)c21
Value type: melting point
Result: 144 to 145 °C
--
Molecule: COC(=O)C[C@@H]1C(=O)NC[C@H](Cc2cc(F)ccc2OC)C(=O)N1S(=O)(=O)c1ccc(Cl)cc1
Value type: melting point
Result: 73 to 76 °C
--
Molecule: NC1(C(=O)c2ccccc2)CCSC1 (stereo not drawn)
Value type: melting point
Result: 147 to 149 °C
--
Molecule: NS(=O)(=O)c1cc2[nH]c(S)nc2cc1Cl
Value type: melting point
Result: 341 to 343 °C
--
Molecule: CC(=O)c1ccc(OCCN2CCN(c3cc(Cl)nnc3Cl)CC2)cc1
Value type: melting point
Result: 115 to 117 °C
--
Molecule: CON(C)C(=O)Nc1ccc(OCc2nc(Cl)ccc2Cl)cc1
Value type: melting point
Result: 152 to 154 °C
--
Molecule: CC(C(=O)O)c1ccc2sc3ncccc3c(=O)c2c1 (stereo not drawn)
Value type: melting point
Result: 206 to 208 °C
--
Molecule: Cc1ccc(S(=O)(=O)NN=C2CCCC(=O)C2Cc2ccccc2)cc1 (stereo not drawn)
Value type: melting point
Result: 172 to 173 °C
--
Molecule: CCOC(=O)Nc1nc2cc(C(O)c3ccccc3)ccc2[nH]1 (stereo not drawn)
Value type: melting point
Result: > 315 °C
--
Molecule: Cn1nc(OCC(=O)c2ccc(F)cc2)c(-c2ccc(F)cc2)c1-c1ccc(S(C)(=O)=O)cc1
Value type: melting point
Result: 173 to 176 °C
--
Molecule: CC(C)NC1=NS(=O)(=O)c2cc(Br)cc(Br)c2N1
Value type: melting point
Result: 306 to 311 °C
--
Molecule: O=[N+]([O-])c1ccc(Sc2ccccc2)cc1OCc1ccccc1
Value type: melting point
Result: 77 to 79 °C
--
Molecule: COc1c(F)cc(Cn2cc[nH]c2=S)cc1F
Value type: melting point
Result: 156 to 158 °C
